# Experimental target: h-TGR5 (Homo sapiens)
# Sequence (Q8TDU6 1-330): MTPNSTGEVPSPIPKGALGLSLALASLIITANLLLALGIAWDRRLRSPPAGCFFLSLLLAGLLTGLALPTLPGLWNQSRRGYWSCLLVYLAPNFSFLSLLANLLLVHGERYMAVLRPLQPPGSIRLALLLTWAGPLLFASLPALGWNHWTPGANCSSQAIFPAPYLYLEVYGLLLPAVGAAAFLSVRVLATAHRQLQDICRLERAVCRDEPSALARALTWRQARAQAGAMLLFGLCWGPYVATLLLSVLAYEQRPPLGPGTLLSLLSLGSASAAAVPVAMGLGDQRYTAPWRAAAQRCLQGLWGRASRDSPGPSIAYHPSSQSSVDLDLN
# Protocol description: TGR5 cAMP Assay using Cisbio cAMP Dynamic 2 htrf assay kit
# Conditions: hTGR5CRE-luc HEK 293 cells
Parameter measured: EC50

See these solved cases before continuing.
1. COc1cc(C(C)(C)c2cnc(SCc3c(F)cc(C(=O)N[C@@H]4CC[N+](C)(C)C4)cc3Cl)n2-c2ccc(F)cc2)ccc1Cl [Example 2h] :: < 100 nM
2. COc1cc(C(C)(C)c2cnc(SCc3c(F)cc(C(=O)N[C@@H]4CCC[N+](C)(C)C4)cc3Cl)n2-c2ccc(F)cc2)ccc1Cl [Example 2g] :: < 100 nM

Read the next record carefully.
# EC50 lookup, item COc1cc(C(C)(C)c2cnc(SCc3c(F)cc(S(=O)(=O)N4CCC([N+](C)(C)C)CC4)cc3F)n2-c2ccc(F)cc2)ccc1Cl [Compound 11c] < 100 nM

src = patent US8846739B2
